- Test system: MDA-MB-435 melanoma
- Method: NCI-60 one-dose screen, 48 h (100 = growth as untreated, 0 = no growth, -100 = all killed)
- Condition Parameters: 10 µM unless noted
Compounds without any hit were thinned out: in the full panel of roughly 83,000, 20% have a hit.
Metric: growth (%)
Answers are plain numbers, in %.

Worked examples follow.
Structure As Smiles: CCOC(=O)NNc1nncc2ccccc12
Readout Unit: %
growth: 100
--
Structure As Smiles: O=C(NCCNc1nccc(-c2c(-c3cccc(O)c3)nc3sccn23)n1)c1cccc(C(F)(F)F)c1
Readout Unit: %
growth: 21.7
--
Structure As Smiles: CCCCNc1cc(C(=O)O)cc(S(N)(=O)=O)c1Oc1ccccc1
Readout Unit: %
growth: 99.3
--
Structure As Smiles: Cc1ccc(-c2nc3c(N=Nc4ccc(S(N)(=O)=O)cc4)c(N)nn3c(N)c2C#N)cc1
Readout Unit: %
growth: 52.3

Consider the record given below.
The recorded growth for `Cc1nccc2c3ccc(OCc4cn(Cc5ccc(Br)cc5)nn4)cc3n(CCCc3ccccc3)c12` is 96.7

* * *

- Test system: SK-MEL-28 melanoma
- Method: NCI-60 one-dose screen, 48 h (100 = growth as untreated, 0 = no growth, -100 = all killed)
- Condition Parameters: 10 µM unless noted
This is part of a sample that, as a whole, favours compounds with a hit. Of some 83,000 tested, about 20% had one in any assay.
Metric: growth (%)
One number for each entry, in %.

Look over these answered cases.
Compound: Cc1ccn2cc(Cc3cc(=O)oc4c3ccc3ccccc34)c(=O)nc2c1
growth, %: 100
--
Compound: COc1ccc(/C=C2/C(=O)Nc3cc(Cl)c(-c4csc(N)n4)cc32)cc1
growth, %: 70.1
--
Compound: COc1ccc(Cl)cc1NC(=O)c1cc2c([nH]1)-c1nc(NC(=O)C(C)C)sc1CC2
growth, %: 112
--
Compound: O=C(NOC1OC(CO)C(O)C(O)C1O)Nc1ccccc1 (stereo not given)
growth, %: 117

We next turn to a different compound, shown below.
response.value for `O=S1(=O)N(CCNc2nccc(-c3c(-c4cccc(O)c4)nc4sccn34)n2)CCN1Cc1ccccc1` (field: growth) = 60.2

* * *

Consider the following molecules; for each one, report its growth.
- Test system: 786-0 renal
- Method: NCI-60 one-dose screen, 48 h (100 = growth as untreated, 0 = no growth, -100 = all killed)
- Condition Parameters: 10 µM unless noted
The panel holds about 83,000 compounds, 20% with a hit somewhere; the sample as a whole holds those more often.
Give bare numbers, in %.

Example entries begin here.
Molecule: O=C(Nc1ccc(-n2ccc3c(NC(=O)c4ccccc4)ncnc32)cc1)c1cccc(C(F)(F)F)c1
Metric: growth
Numeric Value: 56.2
--
Molecule: COc1cc(Br)c(-c2nc(-c3ccccc3)c(-c3ccccc3)n2Cc2ccccc2)cc1OC
Metric: growth
Numeric Value: 67.9
--
Molecule: O=C(NNC(=O)c1ccc([N+](=O)[O-])cc1)c1ccc([N+](=O)[O-])cc1
Metric: growth
Numeric Value: 95
--
Molecule: CC(=O)N[C@@H](CNC(=O)c1cc(NC(=O)c2cc(NC(=O)c3cc(NC(=O)c4nccn4C)cn3C)cn2C)cn1C)CC(=O)Nc1cn(C)c(C(=O)Nc2cc(C(=O)Nc3cc(C(=O)Nc4cc(C(=O)NCCCN(C)CCCNC(=O)c5cccc(C(=O)O)c5)n(C)c4)n(C)c3)n(C)c2)n1
Metric: growth
Numeric Value: 82.7
--
Molecule: Cc1cc[n+](CCCC[n+]2ccc(C)cc2)cc1
Metric: growth
Numeric Value: 95.8
--
Molecule: Nc1c(C(=O)O)[nH]c(=O)[nH]c1=O
Metric: growth
Numeric Value: 104

Parameter requested: growth. Apply to each item below.
1. C[C@@H]1CC2C3C[C@H](F)C4=CC(=O)C=C[C@]4(C)[C@@]3(F)[C@@H](O)C[C@]2(C)[C@@]1(O)C(=O)CO (stereo partly drawn)
2. O=C1OC(=O)C2C3CC(c4ccccc43)C12 (stereo not drawn)

Reply:
1: 109; 2: 102

Reference source for all entries: PubChem BioAssay (NCI)
